The values you see were collected from PubChem BioAssay (NCATS).

# test-protocol: qHTS assay for small molecule antagonists of the retinoid-related orphan receptor gamma (ROR-gamma) signaling pathway - cell viability counter screen (AID 720652);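 also: CHO reporter cells with doxycycline-induced ROR-gamma expression; compound exposure lasted 16 hr before ATP read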
# run-parameters: RORgamma reporter cell line viability counter screen; series mostly up to 92.2 µM
Records with an inconclusive call do not appear. Active and inactive are the calls of the source. Calls follow the shape of the dose curve; as a rule, active = well fitted cell-killing curve with a large enough effect in the repeat runs; inconclusive = weak or mixed curves, or effect the other way; inactive = flat fitted curve, though single readings scatter.
recorded-metric: outcome

>>> measured_value("FC(Cl)(Cl)Cl")
"inactive"
>>> measured_value("Cc1ccc([N+](=O)[O-])cc1")
"inactive"
>>> measured_value("Nc1c(Br)cc([N+](=O)[O-])cc1[N+](=O)[O-]")
"inactive"
>>> measured_value("O=C(Cl)c1ccccc1F")
"inactive"
>>> measured_value("CCOC(=O)CBr")
"inactive"
>>> measured_value("N#C/C=C/C#N")
"inactive"
>>> measured_value("C=COC(C)=O")
"inactive"
>>> measured_value("CCC#N")
"inactive"
>>> measured_value("O=[N+]([O-])c1ccc2c3c(cccc13)CC2")
"inactive"
>>> measured_value("CCCBr")
"inactive"
>>> measured_value("Cl/C=C/Cl")
"inactive"
>>> measured_value("O=[N+]([O-])c1ccccc1O")
"inactive"
>>> measured_value("O=[N+]([O-])c1cc(Cl)c(Cl)c(Cl)c1")
"inactive"
>>> measured_value("Clc1ccc(C(Cl)(Cl)Cl)cc1Cl")
"inactive"
>>> measured_value("CCC(Cl)[N+](=O)[O-] (centres undefined)")
"inactive"
>>> measured_value("O=[N+]([O-])c1cccc(O)c1")
"inactive"
>>> measured_value("Cc1cc(-c2ccc(N)c(C)c2)ccc1N")
"inactive"
>>> measured_value("CCCC[N+](=O)[O-]")
"inactive"
>>> measured_value("NC1CCC(CC2CCC(N)CC2)CC1 (centres undefined)")
"inactive"
>>> measured_value("CCCCOC(C)=O")
"inactive"
>>> measured_value("O=[N+]([O-])c1ccc(Cl)c(Cl)c1Cl")
"inactive"
>>> measured_value("CC(C)(C)c1ccccc1O")
"inactive"
>>> measured_value("Oc1ccc(Cl)c(Cl)c1Cl")
"inactive"
>>> measured_value("CNC(=O)O/N=C/C(C)(C)S(C)=O (centres undefined)")
"inactive"
>>> measured_value("Nc1ccc([N+](=O)[O-])cc1N")
"inactive"
>>> measured_value("O=S(=O)(O)F")
"inactive"
>>> measured_value("ClCCBr")
"inactive"
>>> measured_value("CC(C)(COCC1CO1)COCC1CO1 (centres undefined)")
"inactive"
>>> measured_value("C1CC2OC2CC1C1CO1 (centres undefined)")
"inactive"
>>> measured_value("Clc1ccc(C(Cl)(Cl)Cl)c(Cl)c1")
"inactive"
>>> measured_value("S=c1[nH]c2ccccc2[nH]1")
"inactive"
>>> measured_value("COC(=O)Nc1cccc(OC(=O)Nc2cccc(C)c2)c1")
"inactive"
>>> measured_value("CC[N+](=O)[O-]")
"inactive"
>>> measured_value("O=C(O)C(Cl)Br (centres undefined)")
"inactive"
